measurementLabel: glass transition temperature (°C)

INSERT INTO measurements (molecule, measurementlabel, quantitativereadout) VALUES
  ('*c1cccc(OCCCCCCCCOc2cccc(N3C(=O)c4ccc(-c5ccc6c(c5)C(=O)N(*)C6=O)cc4C3=O)c2)c1 (repeat unit)', 'glass transition temperature', 138.00);

A: *CCN(*)C(=O)c1ccc2ccccc2c1 (repeat unit)
B: *Oc1ccc(S(=O)(=O)c2ccc(Oc3ccc(C(C)(c4ccc(*)cc4)c4ccc(O)cc4)cc3)cc2)cc1 (repeat unit)
C: *c1ccc(-c2nc3cc4nc(*)c(-c5ccccc5)nc4cc3nc2-c2ccccc2)cc1 (repeat unit)
Query string: Hey, quick one: sort these by glass transition temperature, low to high? Your answer should be the labels, listed in the requested order.
Result string: A, B, C
(A: 130.00 °C, B: 228.00 °C, C: 395.00 °C)

====

measurementLabel: glass transition temperature (°C)

Some compounds with recorded glass transition temperature:
INSERT INTO results (compound, measurementunits, quantitativereadout) VALUES
  ('*CC(*)C(=O)Oc1ccc(/N=N/c2ccc([N+](=O)[O-])cc2)cc1 (repeat unit)', '°C', 134.00),
  ('*/C=C/c1ccc2c(c1)C(CC(CC)CCCC)(CC(CC)CCCC)c1cc(*)ccc1-2 (repeat unit)', '°C', 165.00),
  ('*Oc1ccc(C(=O)Nc2cc(SCCC#N)c(NC(=O)c3ccc(*)cc3)cc2SCCC#N)cc1 (repeat unit)', '°C', 158.00),
  ('*Oc1ccc(C(C)(C)c2ccc(C(C)(C)c3ccc(Oc4ccc(C(=O)Nc5cccc(NC(=O)c6ccc(*)cc6)c5)cc4)cc3)cc2)cc1 (repeat unit)', '°C', 173.00),
  ('*CCCCCCNC(=O)c1ccc(C2(C)CC(C)(C)c3ccc(C(=O)N*)cc32)cc1 (repeat unit)', '°C', 190.00),
  ('*NC(CCC(=O)OCCCCCC)C(*)=O (repeat unit)', '°C', -25.00);

I: *OC(COC(=O)c1cc(C(*)=O)cc(C(C)(C)C)c1)COc1ccc(/N=N/c2ccc(C#N)cc2)cc1 (repeat unit)
II: *c1ccc2c(c1)C(=O)N(c1c(C)cc(Cc3cc(C)c(N4C(=O)c5ccc(C(*)(C(F)(F)F)C(F)(F)F)cc5C4=O)c(C)c3)cc1C)C2=O (repeat unit)
III: *Oc1ccc(OC(=O)c2ccc(OCCCCCCCCCCCCOc3ccc(C(*)=O)cc3)cc2)cc1S(=O)(=O)c1ccccc1 (repeat unit)
IV: *CCCCCCCCCOc1ccc(CCc2ccc(O*)cc2C)cc1 (repeat unit)
Query string: Hey, quick one: sort these by glass transition temperature, low to high? Your answer should be the labels, listed in the requested order.
Result string: IV, III, I, II

A: *CCCCCCCCCNC(=O)c1ccc(C(=O)N*)cc1 (repeat unit)
B: *Oc1ccc(C(=O)Nc2ccc(Br)cc2-c2ccc(NC(=O)c3ccc(*)cc3)cc2)cc1 (repeat unit)
Query string: # return whichever of A and B has the smaller glass transition temperature Give the label under which the chosen entry appears.
Result string: A

A: *c1cccc(Oc2cccc(Oc3cccc(N4C(=O)c5ccc(-c6ccc7c(c6)C(=O)N(*)C7=O)cc5C4=O)c3)c2)c1 (repeat unit)
B: *CC#C/C(C#CCOC(=O)CCCCCCCCC(=O)O*)=C\c1ccc(C#Cc2ccccc2)cc1 (repeat unit)
Query string: # return whichever of A and B has the smaller glass transition temperature Give the label under which the chosen entry appears.
Result string: B
(B: 60.00 °C, A: 205.00 °C)

a: *Oc1ccc(C(C)(C)c2ccc(Oc3ccc(C(=O)c4ccc(*)c(S(=O)(=O)O)c4)cc3S(=O)(=O)O)cc2)cc1 (repeat unit)
b: */C=C/c1cc(OCCCCCCCCCCCC)c(*)cc1OC (repeat unit)
Query string: # return whichever of a and b has the smaller glass transition temperature Give the label under which the chosen entry appears.
Result string: b
(b: 36.00 °C, a: 175.00 °C)

P: *CCN(CCOC(=O)Nc1ccc(C)c(NC(=O)O*)c1)c1ccc(C(C#N)=C(C#N)C#N)cc1 (repeat unit)
Q: *Oc1ccc(C2(c3ccc(Oc4ccc(C(=O)c5ccccc5)c(-c5cc(*)ccc5C(=O)c5ccccc5)c4)cc3)c3ccccc3-c3ccccc32)cc1 (repeat unit)
Query string: Between the entries labelled P and Q , which has a larger glass transition temperature value on record? Give the label under which the chosen entry appears.
Result string: Q

I: *Oc1c(C)cc(-c2cc(C)c(OC(=O)CCCCCC(*)=O)c(C)c2)cc1C (repeat unit)
II: *Oc1ccc(C(c2ccccc2)(c2ccccc2)c2ccc(OC(=O)OC3C(C)(C)C(OC(*)=O)C3(C)C)cc2)cc1 (repeat unit)
III: *c1ccc(-c2nc3ccc(-c4ccc5nc(*)c(-c6ccccc6)nc5c4)cc3nc2-c2ccccc2)cc1 (repeat unit)
Query string: Hey, quick one: sort these by glass transition temperature, low to high? Your answer should be the labels, listed in the requested order.
Result string: I, II, III

a: *c1ccc(-c2ccc(N3C(=O)c4ccc(-c5cccc6c5C(=O)N(*)C6=O)cc4C3=O)c(C)c2)cc1C (repeat unit)
b: *CCN(CCOC(=O)c1ccc(C(=O)O*)c(OCCC)c1)c1ccc(/N=N/c2ccc(-c3nc4cc([N+](=O)[O-])ccc4[nH]3)cc2)cc1 (repeat unit)
Query string: Between the entries labelled a and b , which has a larger glass transition temperature value on record? Give the label under which the chosen entry appears.
Result string: a

I: *CCC[Si](*)(C[Si](C)(C)c1ccccc1)C[Si](C)(C)c1ccccc1 (repeat unit)
II: *c1ccc(Oc2ccc(Oc3ccc(N4C(=O)c5cccc(Oc6ccc(C(C)(C)c7ccc(Oc8cccc9c8C(=O)N(*)C9=O)cc7)cc6)c5C4=O)c(C)c3)cc2)cc1C (repeat unit)
III: *c1ccc(C(c2ccccc2)c2ccc(-n3c(=O)c4cc5c(=O)n(*)c(=O)c5cc4c3=O)cc2)cc1 (repeat unit)
Query string: # desc sort on glass transition temperature across 3 compounds Your answer should be the labels, listed in the requested order.
Result string: III, II, I
(III: 321.00 °C, II: 222.00 °C, I: -36.00 °C)
